# System: SK-OV-3 (Ovarian Carcinoma)
# PROTOCOL SUMMARY: Bliss excess, mean over the matrix (fraction); higher = more synergy;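 also: after 72 h of two-drug dosing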
OBSERVED PROPERTY: Bliss excess
Answer with the value's number alone.

COMPOUND	OBSERVED PROPERTY	QUANTITATIVE RESULT
Cc1nc(Nc2ncc(C(=O)Nc3c(C)cccc3Cl)s2)cc(N2CCN(CCO)CC2)n1 [Dasatinib] + CC(=O)Nc1cccc(-n2c(=O)n(C3CC3)c(=O)c3c(Nc4ccc(I)cc4F)n(C)c(=O)c(C)c32)c1 [Trametinib] (first compound max 2 µM, 7x7, partner max 1 µM)	Bliss excess	-0.075
NC1(C(=O)N[C@@H](CCO)c2ccc(Cl)cc2)CCN(c2ncnc3[nH]ccc23)CC1 [Capivasertib] + Cn1cnc2c(F)c(Nc3ccc(Br)cc3Cl)c(C(=O)NOCCO)cc21 [Selumetinib] (first compound max 10 µM, 7x7, partner max 10 µM)	Bliss excess	-0.0629
O=C(c1cc(Cc2n[nH]c(=O)c3ccccc23)ccc1F)N1CCN(C(=O)C2CC2)CC1 [Olaparib] + CC1(C)CCC(CN2CCN(c3ccc(C(=O)NS(=O)(=O)c4ccc(NCC5CCOCC5)c([N+](=O)[O-])c4)c(Oc4cnc5[nH]ccc5c4)c3)CC2)=C(c2ccc(Cl)cc2)C1 [Venetoclax] (first compound max 10 µM, 7x7, partner max 1 µM)	Bliss excess	-0.0472
Cc1cc2ncnn2cc1Nc1ncc2c(n1)n(C1CCOCC1)c(=O)n2C [AZD7648] + C[C@@H]1COCCN1C2=NC(=NC(=C2)C3(CC3)[S@](=N)(=O)C)C4=C5C=CNC5=NC=C4 [AZD6738] (first compound max 10 µM, 7x7, partner max 10 µM)	Bliss excess	0.0411
C[C@@H]1COCCN1c1cc(C2([S@](C)(=N)=O)CC2)nc(-c2ccnc3[nH]ccc23)n1 [AZD6738] + Nc1ccn([C@@H]2O[C@H](CO)[C@@H](O)C2(F)F)c(=O)n1 [Gemcitabine] (first compound max 10 µM, 7x7, partner max 0.3 µM)	Bliss excess	0.0331

Could you share what Bliss excess was measured for COc1cccc(OCCCN)c1-c1cc(Nc2cnc(C#N)cn2)n[nH]1 [Prexasertib] + Cc1cc2ncnn2cc1Nc1ncc2c(n1)n(C1CCOCC1)c(=O)n2C [AZD7648] (first compound max 1 µM, 7x7, partner max 10 µM) , tested on SK-OV-3 (Ovarian Carcinoma)?
-0.0686

Could you share what Bliss excess was measured for CN(C)CCCOc1ccc(-c2ccc3ncc4c(c3c2)n(C2CCOCC2)c(=O)n4C)cn1 [AZD0156] + CCN(CCO)CCCOc1ccc2c(Nc3cc(CC(=O)Nc4cccc(F)c4)[nH]n3)ncnc2c1 [AZD2811] (first compound max 1 µM, 7x7, partner max 1 µM) , tested on SK-OV-3 (Ovarian Carcinoma)?
-0.0533

Could you share what Bliss excess was measured for Cc1c2c(nn1C)CSCc1cc(n(C)n1)CSc1cc(c3ccccc3c1)OCCCc1c(C(=O)O)n(C)c3c-2c(Cl)ccc13 [AZD5991] + CS(=O)(=O)CCNCc1ccc(-c2ccc3ncnc(Nc4ccc(OCc5cccc(F)c5)c(Cl)c4)c3c2)o1 [Lapatinib] (first compound max 1 µM, 7x7, partner max 10 µM) , tested on SK-OV-3 (Ovarian Carcinoma)?
0.0591

* * *

# Tested on: NCI-H28 (Mesothelioma)
# PROTOCOL SUMMARY: Bliss excess, mean over the matrix (fraction); higher = more synergy
OBSERVED PROPERTY: Bliss excess
Answer with the value's number alone.

Look up Bliss excess for this compound: CN(CCO)CC[C@H](CSc1ccccc1)Nc1ccc(S(=O)(=O)NC(=O)c2ccc(N3CCC([C@@H](O)c4ccccc4-c4ccc(Cl)cc4)CC3)cc2)cc1S(=O)(=O)C(F)(F)F [AZD4320] + CC(=O)O[C@H]1C(=O)[C@@]2(C)[C@H]([C@H](OC(=O)c3ccccc3)[C@]3(O)C[C@H](OC(=O)[C@H](O)[C@@H](NC(=O)c4ccccc4)c4ccccc4)C(C)=C1C3(C)C)[C@]1(OC(C)=O)CO[C@@H]1C[C@@H]2O [Paclitaxel] (first compound max 1 µM, 7x7, partner max 3 µM)
0.0394

Look up Bliss excess for this compound: Cc1c2c(nn1C)CSCc1cc(n(C)n1)CSc1cc(c3ccccc3c1)OCCCc1c(C(=O)O)n(C)c3c-2c(Cl)ccc13 [AZD5991] + Nc1ccn([C@@H]2O[C@H](CO)[C@@H](O)C2(F)F)c(=O)n1 [Gemcitabine] (first compound max 1 µM, 7x7, partner max 0.3 µM)
-0.061

Look up Bliss excess for this compound: COc1nnc2ccc(N3CCC(c4ccc(OCCN5CCN(C)C(=O)[C@H]5C)cc4)CC3)nn12 [AZD5153] + Cn1cnc2c(F)c(Nc3ccc(Br)cc3Cl)c(C(=O)NOCCO)cc21 [Selumetinib] (first compound max 1 µM, 7x7, partner max 10 µM)
-0.0199
